Data credit: patent US10028961B2

Target: IDH1 wt/IDH1 R132H heterodimer (Homo sapiens (Human), UniProt O75874, R132H)
Sequence (O75874 whole entry R132H): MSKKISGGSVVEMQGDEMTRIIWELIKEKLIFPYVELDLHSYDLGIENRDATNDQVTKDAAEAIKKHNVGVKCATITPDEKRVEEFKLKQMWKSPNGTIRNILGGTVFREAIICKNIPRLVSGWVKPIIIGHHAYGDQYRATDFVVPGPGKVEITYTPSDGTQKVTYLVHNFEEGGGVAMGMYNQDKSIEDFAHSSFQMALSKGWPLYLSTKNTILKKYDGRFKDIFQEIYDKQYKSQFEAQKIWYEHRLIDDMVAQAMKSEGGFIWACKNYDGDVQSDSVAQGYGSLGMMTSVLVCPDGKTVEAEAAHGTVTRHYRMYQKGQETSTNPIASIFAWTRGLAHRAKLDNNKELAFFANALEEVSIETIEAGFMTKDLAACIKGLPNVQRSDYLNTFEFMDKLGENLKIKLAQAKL
Sequence (O75874 whole entry, stated change not applied): as the sequence (O75874 whole entry R132H) above, with H132R counted along it
Assay: In vitro assay for IDH1m R132H inhibitors, IDH1 wt/IDH1 R132H heterodimer, NADPH depletion (diaphorase/resazurin)
Format: biochemical
Details: IDH1 wt/R132H heterodimer, NADPH/NADP, not saturated; read-out: IDH1 wt/R132H NADPH/NADP IC50 not saturated
This listing pairs compounds with measured IC50.

Recorded results for 3 compounds are shown here.
| compound | IC50 |
| --- | --- |
| Cc1nc(-c2nc(NC3CCC(F)(F)C3)nc(NC3CCC(F)(F)C3)n2)c[nH]1 (stereo not drawn) [Compound 319] | > 1000 nM |
| FC1(F)CCC(Nc2nc(NC3CCC(F)(F)CC3)nc(-c3cccc(Cl)n3)n2)CC1 [Compound 212] | < 50 nM |
| Fc1cc(F)cc(Nc2nc(NC3CCC(F)(F)C3)nc(-c3nc(C(F)(F)F)cs3)n2)c1 (stereo not drawn) [Compound 159] | < 50 nM |

// fetch IDH1 wt/IDH1 R132H heterodimer (Homo sapiens (Human), UniProt O75874, R132H) IC50 for FC1(F)CCC(Nc2nc(NC3CN(c4ccccn4)C3)nc(-c3cccc(C(F)(F)F)n3)n2)C1 (stereo not drawn) [Compound 238] < 50 nM

Enter reported IC50 observed with IDH1 wt/IDH1 R132H heterodimer (Homo sapiens (Human), UniProt O75874, R132H) for N#Cc1cc(F)cc(Nc2nc(NC3CCC(F)(F)C3)nc(-n3ccc(C(F)(F)F)n3)n2)c1 (stereo not drawn) [Compound 112] < 50 nM

For IDH1 wt/IDH1 R132H heterodimer (Homo sapiens (Human), UniProt O75874, R132H), provide IC50 of N#Cc1cc(F)cc(Nc2nc(NC3CCC(F)(F)CC3)nc(-c3cccc(C(F)(F)F)n3)n2)c1 [Compound 164] please. < 50 nM

Give the reported IC50 for FC(F)(F)c1cccc(-c2nc(NC3CC4CC4C3)nc(NC3CC4CC4C3)n2)n1 (stereo not drawn) [Compound 36] (system: IDH1 wt/IDH1 R132H heterodimer (Homo sapiens (Human), UniProt O75874, R132H)). < 50 nM

Find IC50 (IDH1 wt/IDH1 R132H heterodimer (Homo sapiens (Human), UniProt O75874, R132H)) for the entry FC1(F)CCC(Nc2nc(NC3CCC(F)(F)C3)nc(-n3ccc(C(F)(F)F)n3)n2)C1 (stereo not drawn) [Compound 146] < 50 nM

Item CC(C)(C#N)CNc1nc(Nc2ccnc(C(C)(F)F)c2)nc(-c2cccc(C(F)(F)F)n2)n1 [Compound 267] with IDH1 wt/IDH1 R132H heterodimer (Homo sapiens (Human), UniProt O75874, R132H) - IC50? 100 to 1000 nM

Give recorded IC50 with IDH1 wt/IDH1 R132H heterodimer (Homo sapiens (Human), UniProt O75874, R132H) for the following compound: CC(CC#N)Nc1nc(NC(C)CC#N)nc(-c2cccc(Cl)n2)n1 (stereo not drawn) [Compound 271] 100 to 1000 nM

// lookup IC50 | system=IDH1 wt/IDH1 R132H heterodimer (Homo sapiens (Human), UniProt O75874, R132H) | key= FC1(F)CC[C@H](Nc2nc(N[C@H]3CCC(F)(F)C3)nc(-c3cccc(C(F)(F)F)n3)n2)C1 [Compound 118] < 50 nM

Param readout= IC50; system= IDH1 wt/IDH1 R132H heterodimer (Homo sapiens (Human), UniProt O75874, R132H); entry= CC(=O)N1CCC(Nc2nc(NC3CCC(F)(F)C3)nc(-c3cccc(C(F)(F)F)n3)n2)C1 (stereo not drawn) [Compound 55] ; returns value. 100 to 1000 nM

* * *

Target: IDH1 wt/IDH1 R132H heterodimer (Homo sapiens (Human), UniProt O75874, R132H)
Assay: In vitro assay for IDH1m R132H inhibitors, IDH1 wt/IDH1 R132H heterodimer, NADPH depletion (diaphorase/resazurin)
Type: biochemical
Settings: IDH1 wt/R132H heterodimer, NADPH/NADP, not saturated; read-out: IDH1 wt/R132H NADPH/NADP IC50 not saturated
parameter: IC50

The examples below pair each entry with its known result.
| molecule | IC50 |
| --- | --- |
| FC1(F)CCC(Nc2nc(NC3CCC(F)(F)C3)nc(-c3cncc(Cl)n3)n2)C1 (stereo not shown) | < 50 nM |
| N#CC1(c2cc(Nc3nc(N[C@H]4CCC(F)(F)C4)nc(-n4ccc(C(F)(F)F)n4)n3)ccn2)CC1 | < 50 nM |
| Fc1cc(F)cc(Nc2nc(NC3CC(F)(F)C3)nc(-c3cncc(Cl)n3)n2)c1 | < 50 nM |
| CC(C)(C)OC(=O)N1CCC(Nc2nc(NC3CCC(F)(F)C3)nc(-c3cccc(C(F)(F)F)n3)n2)C1 (stereo not shown) [Compound 90] | 100 to 1000 nM |
| CN1CCC(Nc2nc(NC3CCC(F)(F)C3)nc(-c3cccc(C(F)(F)F)n3)n2)C1 (stereo not shown) | > 1000 nM |

Record lookup: for IDH1 wt/IDH1 R132H heterodimer (Homo sapiens (Human), UniProt O75874, R132H), what IC50 belongs to C[C@@H](Nc1nc(N[C@H](C)C2CC2)nc(-c2ccncc2)n1)C1CC1 ? > 1000 nM

IDH1 wt/IDH1 R132H heterodimer (Homo sapiens (Human), UniProt O75874, R132H) / IC50 / FC1(F)CCC(Nc2nc(NC3Cc4ccc(Br)cc4C3)nc(-c3cccc(C(F)(F)F)n3)n2)C1 (stereo not shown) : value? < 50 nM

* * *

System: HT1080 cells
Test: Cellular assay for IDH1m R132C inhibitors, 2-HG by LC-MS in HT1080 cells
Type: cell-based
Details: Homo sapiens, HT-1080
pIC50: −log10 of the molar value.
parameter: pIC50

A selection of reference data follows.
| molecule | subject of test | test value |
| --- | --- | --- |
| CC(C)(O)CNc1nc(Nc2cc(F)cc(Cl)c2)nc(-c2cccc(C(C)(F)F)n2)n1 | HT1080 cells | < 6.00 |
| CS(=O)(=O)N1CCC(Nc2nc(NC3CCC(F)(F)CC3)nc(-c3cccc(C(F)(F)F)n3)n2)CC1 | HT1080 cells | < 6.00 |

Find the recorded pIC50 belonging to CCCC(C)Nc1nc(N[C@H](C)C2CC2)nc(-c2cccc(C(F)(F)F)n2)n1 (some centres unmarked) and report it. 7.00 to 7.30

Need pIC50, item N#Cc1cc(Nc2nc(NC3CCC(F)(F)C3)nc(-c3cccc(C(F)(F)F)n3)n2)ccn1 (centres unmarked) 6.00 to 7.00

I'd like to know its pIC50. The molecule in question is FC1(F)CC(Nc2nc(NC3CC(F)(F)C3)nc(-c3cccc(C(F)(F)F)n3)n2)C1 7.00 to 7.30

Sample CC[C@H](Nc1nc(N[C@H](CC)C(F)(F)F)nc(-c2cccc(Cl)n2)n1)C(F)(F)F — what was its pIC50? 7.00 to 7.30

Would you kindly share the measured pIC50 for FC(F)c1ccnc(-c2nc(NC3CC(F)(F)C3)nc(NC3CC(F)(F)C3)n2)n1 ? 6.00 to 7.00

Entry under review: CC(F)(F)c1cccc(-c2nc(Nc3ccnc(C4(C#N)CC4)c3)nc(NC3CCC(F)(F)C3)n2)n1 (centres unmarked) . Reported pIC50? 6.00 to 7.00

* * *

Biological target: IDH1 wt/IDH1 R132H heterodimer (Homo sapiens (Human), UniProt O75874, R132H)
Assay: In vitro assay for IDH1m R132H inhibitors, IDH1 wt/IDH1 R132H heterodimer, NADPH depletion (diaphorase/resazurin)
Type: biochemical
Conditions: IDH1 wt/R132H heterodimer, NADPH/NADP, not saturated; read-out: IDH1 wt/R132H NADPH/NADP IC50 not saturated
Procedure: The following describes the experimental procedures that can be used to obtain data on columns 2 and 4 of Table 4 and column 2 of Table 5. In the primary reaction, the reduction of α-KG acid to 2-HG is accompanied by a concomitant oxidation of NADPH to NADP. The amount of NADPH remaining at the end of the reaction time is measured in a secondary diaphorase/resazurin reaction in which the NADPH is consumed in a 1:1 molar ratio with the conversion of resazurin to the highly fluorescent resorufin. […]
pIC50: −log10 of the molar value.
parameter: pIC50

Recorded results for 3 compounds are shown here.
| compound | subject of test | parameter | test value |
| --- | --- | --- | --- |
| CC(COC(C)C)Nc1nc(N[C@H](C)C2CC2)nc(-c2cccc(C(F)(F)F)n2)n1 (stereo partly shown) [Compound 241] | IDH1 wt/IDH1 R132H heterodimer (Homo sapiens (Human), UniProt O75874, R132H) | pIC50 | > 7.30 |
| FC1(F)CCC(Nc2nc(Nc3ccnc(C(F)(F)F)c3)nc(-n3ccc(C(F)(F)F)n3)n2)C1 (stereo not shown) [Compound 173] | IDH1 wt/IDH1 R132H heterodimer (Homo sapiens (Human), UniProt O75874, R132H) | pIC50 | > 7.30 |
| C[C@@H](Nc1nc(NCCOc2ccccc2)nc(-c2cccc(C(F)(F)F)n2)n1)C1CC1 [Compound 246] | IDH1 wt/IDH1 R132H heterodimer (Homo sapiens (Human), UniProt O75874, R132H) | pIC50 | 7.00 to 7.30 |

Find the recorded pIC50 belonging to C[C@@H](Nc1nc(N[C@H](C)C2CC2)nc(-c2cccc(C(F)F)n2)n1)C1CC1 [Compound 198] and report it. > 7.30
